experiment: Plasma and urine pharmacokinetics of napabucasin in patients; format: in vivo, Japanese patients; details: human, plasma, oral, 240 mg, plasma, Cycle 1 (Day 1), Cohort 1 (480 mg/day, 240 mg BID), n = 3; read-out: Cmax, range
measured property: Cmax

Task: GET /values?readout=Cmax&item= CC(=O)c1cc2c(o1)C(=O)c1ccccc1C2=O
Result: 194 to 468 ng/mL

* * *

experiment: Plasma and urine pharmacokinetics of napabucasin in patients; type: in vivo, Japanese patients; conditions: human, plasma, oral, 240 mg, plasma, Cycle 1 (Day 1), Cohort 1 (480 mg/day, 240 mg BID), n = 3; read-out: AUC0–∞, range
measured property: AUC(0-inf)

Task: GET /values?readout=AUC(0-inf)&item= CC(=O)c1cc2c(o1)C(=O)c1ccccc1C2=O
Result: 3650 to 4060 ng·h/mL

* * *

assay: Plasma and urine pharmacokinetics of napabucasin in patients; type: in vivo, Japanese patients; settings: human, plasma, oral, 480 mg, plasma, Cycle 2 (Day 29), Cohort 2 (960 mg/day, 480 mg BID), n = 3; read-out: tmax, range
measured property: Tmax

Task: GET /values?readout=Tmax&item= CC(=O)c1cc2c(o1)C(=O)c1ccccc1C2=O [napabucasin]
Result: 2 to 10 h

* * *

assay: Plasma and urine pharmacokinetics of napabucasin in patients; format: in vivo, Japanese patients; conditions: human, plasma, oral, 720 mg, plasma, Cycle 1 (Day 1), Cohort 3 (1440 mg/day, 720 mg BID), n = 7; read-out: tmax, range
measured property: Tmax

Task: GET /values?readout=Tmax&item= CC(=O)c1cc2c(o1)C(=O)c1ccccc1C2=O [napabucasin]
Result: 2 to 6 h

* * *

assay: Plasma and urine pharmacokinetics of napabucasin in patients; format: in vivo, Japanese patients; details: human, plasma, oral, 720 mg, plasma, Cycle 2 (Day 29), Cohort 3 (1440 mg/day, 720 mg BID), n = 5; read-out: Cmax, range
measured property: Cmax

Task: GET /values?readout=Cmax&item= CC(=O)c1cc2c(o1)C(=O)c1ccccc1C2=O
Result: 596 to 1930 ng/mL

* * *

assay: Plasma and urine pharmacokinetics of napabucasin in patients; assay type: in vivo, Japanese patients; settings: human, plasma, oral, 240 mg, plasma, Cycle 1 (Day 1), Cohort 1 (480 mg/day, 240 mg BID), n = 3; read-out: tmax, range
measured property: Tmax

Task: GET /values?readout=Tmax&item= CC(=O)c1cc2c(o1)C(=O)c1ccccc1C2=O [napabucasin]
Result: 4 to 6 h

* * *

Experiment: Plasma and urine pharmacokinetics of napabucasin in patients
Format: in vivo, Japanese patients
Settings: human, plasma, oral, 720 mg, plasma, Cycle 1 (Day 1), Cohort 3 (1440 mg/day, 720 mg BID), n = 7; read-out: t1/2, range
Experimental: Blood samples for PK were obtained on Days 1, 2, 8, and 15 of Cycle 1 and Days 29 and 30 of Cycle 2. […] Plasma napabucasin concentration was measured by Frontage Laboratories and CMIC Pharma Science Co., Ltd and urine napabucasin concentration was measured by CMIC Pharma Science Co., Ltd. […]
measured property: half-life

Task: GET /values?readout=half-life&item= CC(=O)c1cc2c(o1)C(=O)c1ccccc1C2=O [napabucasin]
Result: 3 to 12 h

* * *

Experiment: Plasma and urine pharmacokinetics of napabucasin in patients
Assay type: in vivo, Japanese patients
Conditions: human, plasma, oral, 480 mg, plasma, Cycle 1 (Day 1), Cohort 2 (960 mg/day, 480 mg BID), n = 4; read-out: AUC0–∞, range
Experimental: Blood samples for PK were obtained on Days 1, 2, 8, and 15 of Cycle 1 and Days 29 and 30 of Cycle 2. […] Plasma napabucasin concentration was measured by Frontage Laboratories and CMIC Pharma Science Co., Ltd and urine napabucasin concentration was measured by CMIC Pharma Science Co., Ltd. […]
measured property: AUC(0-inf)

Task: GET /values?readout=AUC(0-inf)&item= CC(=O)c1cc2c(o1)C(=O)c1ccccc1C2=O [napabucasin]
Result: 1410 to 7360 ng·h/mL
